Entries and their measured residual activity follow.
- EXPERIMENTAL_SYSTEM: UniProt:O14920
- Sequence (O14920 whole entry, looked up): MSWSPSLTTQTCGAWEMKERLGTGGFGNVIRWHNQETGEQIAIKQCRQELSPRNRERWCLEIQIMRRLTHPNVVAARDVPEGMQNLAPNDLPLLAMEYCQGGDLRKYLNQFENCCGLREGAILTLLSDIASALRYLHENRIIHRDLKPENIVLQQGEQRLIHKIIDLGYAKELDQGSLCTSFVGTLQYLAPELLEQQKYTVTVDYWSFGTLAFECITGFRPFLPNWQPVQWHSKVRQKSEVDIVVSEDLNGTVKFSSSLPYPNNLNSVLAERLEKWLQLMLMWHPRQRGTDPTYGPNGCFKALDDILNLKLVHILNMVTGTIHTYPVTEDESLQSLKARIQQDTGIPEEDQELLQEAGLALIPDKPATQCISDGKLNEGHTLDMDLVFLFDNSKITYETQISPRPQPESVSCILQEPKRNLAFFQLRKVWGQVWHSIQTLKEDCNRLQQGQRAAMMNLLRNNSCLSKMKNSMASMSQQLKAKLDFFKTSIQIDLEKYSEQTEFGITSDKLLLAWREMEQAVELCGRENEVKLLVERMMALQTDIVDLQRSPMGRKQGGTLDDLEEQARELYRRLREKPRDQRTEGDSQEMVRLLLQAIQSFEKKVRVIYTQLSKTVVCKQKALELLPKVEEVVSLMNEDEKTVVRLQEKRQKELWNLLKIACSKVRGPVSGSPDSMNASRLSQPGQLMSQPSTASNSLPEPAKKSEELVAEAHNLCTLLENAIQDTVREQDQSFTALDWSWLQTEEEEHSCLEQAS
- METHOD: radiometric filter-binding kinase assay, Kinase HotSpot
- CONDITION_NOTES: compound 0.5 µM; ATP 10 µM
TEST_READOUT: residual activity (%)

SMILES_STR: Nc1n[nH]c2nnc(-c3c(-c4ccccc4)nn4ccccc34)cc12
EXPERIMENTAL_SYSTEM: UniProt:O14920
VALUE: 115
--
SMILES_STR: O=C1Nc2ccccc2/C1=C\c1c(Cl)[nH]c2ccccc12
EXPERIMENTAL_SYSTEM: UniProt:O14920
VALUE: 106
--
SMILES_STR: CCN1/C(=C/C(C)=O)Sc2ccc(OC)cc21
EXPERIMENTAL_SYSTEM: UniProt:O14920
VALUE: 102
--
SMILES_STR: CC(C)[C@H](CO)Nc1nc(Nc2cccc(Cl)c2)c2ncn(C(C)C)c2n1
EXPERIMENTAL_SYSTEM: UniProt:O14920
VALUE: 107
--
SMILES_STR: Nc1nc(Nc2ccc(S(N)(=O)=O)cc2)nn1C(=S)Nc1c(F)cccc1F
EXPERIMENTAL_SYSTEM: UniProt:O14920
VALUE: 49.3
